Tested on: primary human hepatic stellate cells (donor 1)
Protocol description: scaled lipid accumulation score (0 = DMSO-like, 1 = nortriptyline-like); higher = stronger HSC inactivation (lipid re-accumulation), active = hit call of the paper
Condition summary: library stock concentration: 2 mM; 48 h
The whole screen tested about 5,800 compounds, of which about 620 (11%) showed activity. The full list was thinned out, with actives kept by preference.
Items are presented alongside their recorded scaled lipid accumulation score.
Parameter: scaled lipid accumulation score

{"columns": ["Compound", "Result"],
 "data": [
  ["COc1cc(Nc2c(C#N)cnc3cc(OCCCN4CCN(C)CC4)c(OC)cc23)c(Cl)cc1Cl [Bosutinib]", "≤ -0.016 (inactive)"],
  ["COc1cc2ncnc(Nc3ccc(F)c(Cl)c3)c2cc1OCCCN1CCOCC1", "0.19 (inactive)"],
  ["CCN1CCN(Cc2ccc(Nc3ncc4c(n3)N(C)c3ccccc3C(=O)N4C)cc2C(F)(F)F)CC1", "0.243 (inactive)"],
  ["Cc1ccc(NC(=O)c2ccc(CN3CCN(C)CC3)cc2)cc1Nc1nc(-c2cccnc2)cs1 [Masitinib]", "0.121 (inactive)"],
  ["COc1cc(C(=O)NC2CCN(C)CC2)ccc1Nc1ncc2c(n1)N(C1CCCC1)C(C)CC(=O)N2C (stereo not given)", "0.177 (inactive)"]
]}
